Sequence of the target: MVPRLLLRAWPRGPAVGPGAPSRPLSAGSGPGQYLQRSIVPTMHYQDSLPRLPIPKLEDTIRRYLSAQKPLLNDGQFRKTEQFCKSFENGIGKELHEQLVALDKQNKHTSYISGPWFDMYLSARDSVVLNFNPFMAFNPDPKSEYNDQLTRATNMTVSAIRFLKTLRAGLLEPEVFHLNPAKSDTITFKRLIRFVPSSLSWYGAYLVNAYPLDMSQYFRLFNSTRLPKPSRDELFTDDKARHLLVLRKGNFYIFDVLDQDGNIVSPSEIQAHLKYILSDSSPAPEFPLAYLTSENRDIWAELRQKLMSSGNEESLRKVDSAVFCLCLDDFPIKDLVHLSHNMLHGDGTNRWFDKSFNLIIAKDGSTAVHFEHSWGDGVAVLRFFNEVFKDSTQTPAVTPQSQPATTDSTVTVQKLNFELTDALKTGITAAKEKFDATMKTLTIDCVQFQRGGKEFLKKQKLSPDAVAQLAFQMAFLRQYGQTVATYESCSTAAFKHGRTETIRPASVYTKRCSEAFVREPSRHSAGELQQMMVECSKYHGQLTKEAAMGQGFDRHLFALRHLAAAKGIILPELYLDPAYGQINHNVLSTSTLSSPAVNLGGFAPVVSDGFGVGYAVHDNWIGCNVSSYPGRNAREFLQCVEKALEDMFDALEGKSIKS
pIC50: −log10 of the molar value.
Answer false if pIC50 is under 5, and true if it is 5 or more.

Examples with answers:
O=C([C@H]1CCCCN1C(=O)COc1ccccc1)N1Cc2cc(F)c(N3CCOCC3)cc2C1    true
Cc1cc(C)cc(S(=O)(=O)n2ccc3ccc(C(=O)Nc4ccc(CC(=O)O)cc4)cc32)c1    false
COc1ccc(Cl)cc1S(=O)(=O)N1CCOc2c(F)cc(C(=O)Nc3ccc(C(=O)O)c(Cl)c3)cc21    true

*Q* Please check the record O=C(COc1ccccc1)N1CCCC[C@@H]1c1nc(-c2ccc3[nH]cnc3c2)no1 and state if its pIC50 is at or above 5.
*A* false

*Q* Test whether the molecule NC(=O)COc1cccc(-c2noc([C@H]3CCCCN3C(=O)COc3ccccc3)n2)c1 records pIC50 of 5 or higher.
*A* false

*Q* Check if pIC50 >= 5 (inclusive). Item: CCN(c1cc(C(=O)Nc2ccn(CC(=O)O)n2)cc2c1OCO2)S(=O)(=O)c1cc(Cl)ccc1OC
*A* false

*Q* // inclusive: pIC50 at least 5? input: COc1ccc(Cl)cc1Cc1c[nH]c2ccc(C(=O)Nc3ccc(CC(=O)O)cc3)cc12
*A* false

*Q* Can COCCN(c1cc(C(=O)Nc2ncc(CC(=O)O)s2)cc2c1OCO2)S(=O)(=O)c1cc(Cl)ccc1OC be said to have pIC50 at or above 5?
*A* false
